Target: matrix metalloproteinase-2 (Homo sapiens, UniProt P08253)
Sequence (P08253 110-660): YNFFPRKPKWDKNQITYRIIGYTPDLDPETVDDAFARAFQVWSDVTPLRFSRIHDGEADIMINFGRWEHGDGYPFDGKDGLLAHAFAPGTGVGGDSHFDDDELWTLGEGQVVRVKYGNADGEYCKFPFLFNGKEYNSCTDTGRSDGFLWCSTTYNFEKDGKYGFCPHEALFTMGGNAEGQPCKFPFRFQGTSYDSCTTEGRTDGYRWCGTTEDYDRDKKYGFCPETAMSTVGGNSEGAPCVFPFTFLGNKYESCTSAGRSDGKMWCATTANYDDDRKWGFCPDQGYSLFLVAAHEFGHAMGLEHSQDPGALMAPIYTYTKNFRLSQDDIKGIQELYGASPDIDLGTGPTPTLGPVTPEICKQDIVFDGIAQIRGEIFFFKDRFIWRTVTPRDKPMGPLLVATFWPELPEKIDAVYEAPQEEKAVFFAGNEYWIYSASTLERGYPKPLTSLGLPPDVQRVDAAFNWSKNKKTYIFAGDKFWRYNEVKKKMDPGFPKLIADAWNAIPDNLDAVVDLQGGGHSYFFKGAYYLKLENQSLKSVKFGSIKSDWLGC
Assay: Matrix metalloproteinase-2 inhibitory assay
Conditions: MMP-2 inhibition, 30 min at 37°C, absorbance 450 nm
Item-by-item account of pIC50
In plain terms, pIC50 is the concentration in mol/L turned into minus its base-10 logarithm.

Query string: GET /values?readout=pIC50&item= C[C@@H]1CC[C@]2(C(=O)O[C@@H]3O[C@H](CO)[C@@H](O)[C@H](O)[C@H]3O)CC[C@]3(C)C(=CC[C@@H]4[C@@]5(C)C[C@@H](O)C(=O)C(C)(C)[C@@H]5CC[C@]43C)[C@@H]2[C@]1(C)O [Potentillanoside A]
Result string: 4.59

Query string: Field entry: C[C@@H]1CC[C@]2(C(=O)O[C@@H]3O[C@H](CO)[C@@H](O)[C@H](O)[C@H]3O)CC[C@]3(C)C(=CC[C@@H]4[C@@]5(C)C[C@@H](O)[C@H](O)[C@@](C)(CO)[C@@H]5CC[C@]43C)[C@@H]2[C@]1(C)O [Niga-ichigoside F1]
Result string: 4.70

Query string: Field entry: O=c1oc2c(O)c(O)cc3c(=O)oc4c(O)c(O)cc1c4c23 [Ellagic acid, reference compound]
Result string: 4.42

Query string: Field entry: C[C@@H]1CC[C@]2(C(=O)O[C@@H]3O[C@H](CO)[C@@H](O)[C@H](O)[C@H]3O)CC[C@]3(C)C(=CC[C@@H]4[C@@]5(C)C[C@@H](O)[C@H](O)C(C)(C)[C@@H]5CC[C@]43C)[C@@H]2[C@]1(C)O
Result string: 4.68

Query string: Field entry: CC1=C2[C@H](/C=C(\C)C(=O)O)CC[C@@H](C)[C@H]2CC1
Result string: 4.08

Query string: Field entry: C=C1[C@H]2C3=CC[C@@H]4[C@@]5(C)C[C@@H](O)[C@H](O)[C@@](C)(CO)[C@@H]5CC[C@@]4(C)[C@]3(C)CC[C@@]2(C(=O)O[C@@H]2O[C@H](CO)[C@@H](O)[C@H](O)[C@H]2O)CC[C@H]1C [Quadranoside VIII]
Result string: 4.59
